# System: SNB-75 CNS
# protocol-details: NCI tumour cell line growth inhibition, 48 h
property-name: TGI

Asked: Give the measured TGI for CN(C)c1cc2ccccc2oc1=O
Given back: > 100 µM

Asked: Give the measured TGI for C1=C(c2ccccc2)SC(N2CCCCC2)S1 (stereo not given)
Given back: > 100 µM

Asked: Give the measured TGI for Cn1c(=O)nc2n(-c3ccc(O)cc3)c3ccccc3nc-2c1=O
Given back: > 100 µM

Asked: Give the measured TGI for c1ccc(C2ONC3=NCCN32)cc1 (stereo not given)
Given back: > 100 µM

Asked: Give the measured TGI for CCOC(=O)NC(=O)c1cn(CCN2CCN(C(=O)NCCCCCCNC(=O)N3CCN(CCn4cc(C(=O)NC(=O)OCC)c(=O)[nH]c4=O)CC3)CC2)c(=O)[nH]c1=O
Given back: > 100 µM

Asked: Give the measured TGI for COc1cc2c(c3c1c(=O)c1ccccc1n3C)C=CC1(CCCC1)O2
Given back: 24.8 µM

Asked: Give the measured TGI for C[C@@]1(O)C2CC3CC1(c1ccccc1)CC(/C3=N/O)/C2=N\O (stereo not given in full)
Given back: > 100 µM

Asked: Give the measured TGI for O=C(Nc1ccccc1)N(C1=NCC(CI)S1)c1ccc(F)c(F)c1 (stereo not given)
Given back: 55.6 µM

Asked: Give the measured TGI for COc1ccc([C@H]2[C@H]3COC(=O)[C@H]3C(C#N)=C3Sc4ccccc4N32)cc1
Given back: > 26.7 µM

Asked: Give the measured TGI for CO/N=C(\COc1ccc2c(c1)[nH]c1ccccc12)c1ccc(OC)cc1
Given back: > 100 µM
